Target: rat 5-HT7 receptors (Rattus norvegicus (Rat), UniProt P32305)
Sequence (P32305 1-435): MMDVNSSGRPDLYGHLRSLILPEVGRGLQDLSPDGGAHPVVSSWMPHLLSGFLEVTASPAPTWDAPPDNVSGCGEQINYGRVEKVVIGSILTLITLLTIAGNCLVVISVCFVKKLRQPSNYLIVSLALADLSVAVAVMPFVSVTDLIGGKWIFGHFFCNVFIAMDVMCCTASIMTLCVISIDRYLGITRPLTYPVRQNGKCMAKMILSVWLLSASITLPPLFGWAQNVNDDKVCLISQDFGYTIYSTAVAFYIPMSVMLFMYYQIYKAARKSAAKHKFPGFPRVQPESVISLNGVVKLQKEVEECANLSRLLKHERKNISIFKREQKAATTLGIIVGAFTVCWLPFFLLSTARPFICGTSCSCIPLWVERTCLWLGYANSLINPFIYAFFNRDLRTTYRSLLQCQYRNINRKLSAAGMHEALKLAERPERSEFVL
Assay: r5-HT7 competitive radioligand binding assay ([3H]5-CT)
Settings: membrane fractions of HEK-293 cells recombinantly expressing rat 5-HT7
Description: Compound affinity for the rat 5-HT7 receptor subtype was evaluated by competitive radioligand binding assays using 5-carboxamido[^3H]tryptamine ([^3H]5-CT) (Amersham Biosciences, cat. 90000403) detection. HitHunter™ cAMP assays are in-vitro based competitive immunoassays. […] Cells were pre-incubated with test compounds for 10 minutes. For agonistic testing, the concentration of test compound that produced a half-maximal response is represented by the EC50 value. […]
Structures can show the parent of a compound that is named as a salt.
Result type: Ki (nM)

| Compound | Observed value |
| --- | --- |
| COc1ccc(-c2c(Cl)cccc2C(F)(F)F)cc1OC1CNC1 [Example 10, trifluoroacetate] | 112 |
| COc1ccc(-c2cccc(C(F)(F)F)c2)cc1C1CCNC1 (racemic) [Example 46] | 117 |
| Cc1cccc(-c2ccccc2C2CCNC2)c1 (racemic) [Example 52] | 80.2 |
| Cc1ccc(-c2ccc(Cl)cc2C2CCNC2)cc1C (racemic) [Example 67] | 120 |
| Clc1cccc(-c2ccc(Cl)cc2C2CCNC2)c1 (racemic) [Example 65] | 130 |
| Cc1ccccc1-c1cccc(OC2CNC2)c1 [Example 23, 3-(2′-Methyl-biphenyl-3-yloxy)-azetidine] | 67 |
| N#Cc1ccc(-c2ccccc2C(F)(F)F)cc1OC1CNC1 [Example 28] | 127 |

* * *

# pKi listing for each entry below
Biological target: UniProt:P32305
Test: r5-HT7 competitive radioligand binding assay ([3H]5-CT)
Settings: membrane fractions of HEK-293 cells recombinantly expressing rat 5-HT7
pKi: −log10 of the molar value. Where a name gives a salt, the structure may show the parent alone.

| Compound | pKi |
| --- | --- |
| COc1ccc(-c2ccccc2Cl)cc1OC1CN(C(C)C)C1 [Example 18, trifluoroacetate] | 6.27 |
| COc1ccc(-c2cccc(C)c2)cc1OC1CNC1 | 6.00 |
| Clc1ccc(-c2ccccc2Cl)cc1OC1CNC1 [Example 24, trifluoroacetate] | 8.05 |
| Cc1cccc(-c2ccc(Cl)c(OC3CNC3)c2)c1 [Example 27, trifluoroacetate] | 6.39 |
| COc1ccc(-c2ccccc2C)cc1OC1CNC1 [Example 8, trifluoroacetate] | 7.87 |
